# Test system: K562
# protocol.description: Cell cycle arrest in human K562 cells assessed as accumulation at Sub-G1 phase at 1 uM after 24 hrs using propidium iodide staining by flow cytometry
# Type: functional
endpoint.name: Activity (%)
Answers are plain numbers, in %.

smiles.string | endpoint.name | readout.value
CCN(CC)CCOC(=O)c1ccc(/N=C2/c3ccccc3/C(=N/c3ccc(C(=O)OCCN(CC)CC)cc3)c3occc32)cc1 | Activity | 5.56
CC(=O)O/N=C1/c2ccccc2C(=O)c2occc21 | Activity | 5.82
O=C1C(=O)c2ccoc2-c2ccccc21 | Activity | 3.75
O=C1c2ccccc2C(=O)c2occc21 | Activity | 8.24

Kindly give each listed record's Activity.
1. Br.NCCCO/N=C1/c2ccccc2C(=O)c2occc21
2. CO/N=C1/c2ccccc2C(=O)c2occc21
3. O=C1c2ccccc2/C(=N/O)c2ccoc21

4.19
4.8
4.41
